- measurement.protocol: Physicochemical characteristics of baclofen (internal report)
recorded.endpoint: logP
// print number alone

Value of measured logP for the entry NCC(CC(=O)O)c1ccc(Cl)cc1 (stereo not shown) : -1

###

- measurement.protocol: Baclofen solubility assays (visual method)
- Type: physicochemical
- settings: oil or lipid, thermodynamic from solid; in Captex ® 355, ambient; read-out: Solubility of baclofen
recorded.endpoint: solubility at 24 h

Measured solubility at 24 h of NCC(CC(=O)O)c1ccc(Cl)cc1 (stereo not shown) [baclofen, Baclofen] : < 100 µg/mL

###

- measurement.protocol: Baclofen solubility assays (visual method)
- Format: physicochemical
- settings: oil or lipid, thermodynamic from solid; in Miglyol ® 810, ambient; read-out: Solubility of baclofen
recorded.endpoint: solubility at 24 h

Per the record, NCC(CC(=O)O)c1ccc(Cl)cc1 (stereo not shown) has solubility at 24 h of < 100 µg/mL

###

- measurement.protocol: Baclofen solubility assays (visual method)
- Type: physicochemical
- settings: Gélucire 50/13 (molten), oil or lipid, thermodynamic from solid; in Gélucire ® 50/13, 60° C.; read-out: Solubility of baclofen
- Description: Beforehand it is important to determine the solubility of the active ingredient in the excipients to be evaluated. […] Solubility was determined via visual method by adding exactly weighed quantities of baclofen to the selected excipients, after being left under agitation for 24 h. First the solubility of baclofen at ambient temperature in Labrasol®, Miglyol® 810 and Captex® 355 was determined. […]
recorded.endpoint: solubility at 24 h

Just so you know, measured solubility at 24 h for NCC(CC(=O)O)c1ccc(Cl)cc1 (stereo not shown) came out at 500 to 1000 µg/mL

###

- measurement.protocol: Baclofen solubility assays (visual method)
- Format: physicochemical
- settings: liquid absorption enhancers, oil or lipid, thermodynamic from solid; read-out: solubility of the active ingredient in the liquid absorption enhancers
recorded.endpoint: solubility at 24 h

Briefly, solubility at 24 h measured for NCC(CC(=O)O)c1ccc(Cl)cc1 (stereo not shown) [baclofen, Baclofen] : < 1000 µg/mL

###

- measurement.protocol: Permeability assay on Caco-2 cells (apparent permeability)
- Assay type: in vitro ADME, human
- settings: human, Caco-2, Caco-2, apical pH 6.8 to basolateral pH 7.4; read-out: apparent permeability of baclofen
recorded.endpoint: Papp A→B at 125 min

Consider NCC(CC(=O)O)c1ccc(Cl)cc1 (stereo not shown) . Its measured Papp A→B at 125 min is < 0.3 ×10⁻⁶ cm/s
